Reference for the values: ChEMBL document CHEMBL1126797

Target: DNA topoisomerase 1 (Homo sapiens, UniProt P11387)
Sequence (P11387 whole entry): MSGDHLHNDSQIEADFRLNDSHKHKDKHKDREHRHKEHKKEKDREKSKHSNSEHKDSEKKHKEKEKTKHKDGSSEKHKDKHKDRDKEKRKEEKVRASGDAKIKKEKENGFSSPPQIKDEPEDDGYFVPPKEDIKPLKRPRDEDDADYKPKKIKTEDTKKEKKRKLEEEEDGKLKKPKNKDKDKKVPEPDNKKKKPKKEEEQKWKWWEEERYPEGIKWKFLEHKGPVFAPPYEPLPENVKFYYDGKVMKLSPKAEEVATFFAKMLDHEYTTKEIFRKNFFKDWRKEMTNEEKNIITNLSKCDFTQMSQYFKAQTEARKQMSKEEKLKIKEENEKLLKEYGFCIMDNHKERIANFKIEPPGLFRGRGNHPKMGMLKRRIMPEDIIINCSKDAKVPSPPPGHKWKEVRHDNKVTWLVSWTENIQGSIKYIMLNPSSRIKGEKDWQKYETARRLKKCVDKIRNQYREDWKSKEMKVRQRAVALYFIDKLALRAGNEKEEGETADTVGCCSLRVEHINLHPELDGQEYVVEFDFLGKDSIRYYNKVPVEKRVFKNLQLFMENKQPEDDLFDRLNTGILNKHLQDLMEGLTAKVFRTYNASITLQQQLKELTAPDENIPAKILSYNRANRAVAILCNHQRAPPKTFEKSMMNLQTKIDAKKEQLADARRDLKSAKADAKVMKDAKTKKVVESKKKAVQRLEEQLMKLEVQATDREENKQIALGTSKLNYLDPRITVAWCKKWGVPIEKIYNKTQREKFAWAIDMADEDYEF
Assay: Inhibition of Topoisomerase I by cleavage complex formation in human HL-60 cells
Format: cell-based
property_label: IC50

Examples from the recorded data:
compound=CC[C@@]1(O)C(=O)OCc2c1cc1n(c2=O)Cc2cc3cc([N+](=O)[O-])ccc3nc2-1 result="640 nM"
compound="CCC1(OC(=O)CN)C(=O)OCc2c1cc1n(c2=O)Cc2cc3c(N)cccc3nc2-1.Cl (racemic)" result="5500 nM"
compound="CCC(O)(C(=O)[O-])c1cc2n(c(=O)c1CO)Cc1cc3cc4c(cc3nc1-2)OCO4.[Na+] (racemic)" result="550 nM"
compound="CCC1(O)C(=O)OCc2c1cc1n(c2=O)Cc2cc3cc(Br)ccc3nc2-1 (configuration not stated)" result="130 nM"
compound="CCC1(O)C(=O)OCc2c1cc1n(c2=O)Cc2cc3c4c(ccc3nc2-1)OCO4 (racemic)" result="3800 nM"
compound="CCC1(O)C(=O)OCc2c1cc1n(c2=O)Cc2cc3cc(OC(=O)N4CCN(C)CC4)ccc3nc2-1 (configuration not stated)" result="4400 nM"

Any idea what its IC50 is? The compound is CCC1(O)C(=O)OCc2c1cc1n(c2=O)Cc2cc3cc(F)ccc3nc2-1 (configuration not stated)
370 nM

Any idea what its IC50 is? The compound is CCC1(O)C(=O)OCc2c1cc1n(c2=O)Cc2cc3c(CN4CC4)c(O)ccc3nc2-1 (configuration not stated)
1100 nM

Any idea what its IC50 is? The compound is CC[C@@]1(O)C(=O)OCc2c1cc1n(c2=O)Cc2cc3cc(O)ccc3nc2-1 [HYDROXYCAMPTOTHECIN]
110 nM
